- target-under-test: Androgen Receptor (AR) protein (Homo sapiens, UniProt P10275, T878A)
- Construct: endogenous in cells; host or cells: LNCaP
- Sequence (P10275 whole entry T878A): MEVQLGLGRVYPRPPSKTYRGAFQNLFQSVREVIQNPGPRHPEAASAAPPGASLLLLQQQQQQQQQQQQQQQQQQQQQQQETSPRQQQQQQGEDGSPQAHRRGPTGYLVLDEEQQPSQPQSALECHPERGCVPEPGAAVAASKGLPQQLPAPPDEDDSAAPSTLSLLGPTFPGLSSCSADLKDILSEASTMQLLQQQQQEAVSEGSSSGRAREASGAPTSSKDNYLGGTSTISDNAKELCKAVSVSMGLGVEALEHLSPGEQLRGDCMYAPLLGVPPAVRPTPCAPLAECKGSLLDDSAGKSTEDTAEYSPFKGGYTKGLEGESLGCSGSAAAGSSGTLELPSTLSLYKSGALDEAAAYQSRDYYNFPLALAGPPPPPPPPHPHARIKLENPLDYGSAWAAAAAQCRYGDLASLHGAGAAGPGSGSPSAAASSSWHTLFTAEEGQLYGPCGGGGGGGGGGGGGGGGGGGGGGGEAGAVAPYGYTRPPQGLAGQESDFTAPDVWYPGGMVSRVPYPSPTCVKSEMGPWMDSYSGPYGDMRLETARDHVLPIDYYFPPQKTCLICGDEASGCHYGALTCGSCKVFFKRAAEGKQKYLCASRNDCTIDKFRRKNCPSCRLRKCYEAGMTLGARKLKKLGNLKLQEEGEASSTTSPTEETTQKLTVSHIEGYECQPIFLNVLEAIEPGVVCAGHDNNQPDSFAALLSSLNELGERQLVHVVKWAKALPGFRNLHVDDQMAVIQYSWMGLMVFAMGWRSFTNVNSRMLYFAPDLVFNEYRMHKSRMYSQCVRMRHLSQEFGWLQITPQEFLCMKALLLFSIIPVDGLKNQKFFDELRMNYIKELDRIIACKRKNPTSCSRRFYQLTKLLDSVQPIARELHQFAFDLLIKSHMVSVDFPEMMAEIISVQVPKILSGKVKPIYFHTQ
- Sequence (Q96SW2 whole entry partner): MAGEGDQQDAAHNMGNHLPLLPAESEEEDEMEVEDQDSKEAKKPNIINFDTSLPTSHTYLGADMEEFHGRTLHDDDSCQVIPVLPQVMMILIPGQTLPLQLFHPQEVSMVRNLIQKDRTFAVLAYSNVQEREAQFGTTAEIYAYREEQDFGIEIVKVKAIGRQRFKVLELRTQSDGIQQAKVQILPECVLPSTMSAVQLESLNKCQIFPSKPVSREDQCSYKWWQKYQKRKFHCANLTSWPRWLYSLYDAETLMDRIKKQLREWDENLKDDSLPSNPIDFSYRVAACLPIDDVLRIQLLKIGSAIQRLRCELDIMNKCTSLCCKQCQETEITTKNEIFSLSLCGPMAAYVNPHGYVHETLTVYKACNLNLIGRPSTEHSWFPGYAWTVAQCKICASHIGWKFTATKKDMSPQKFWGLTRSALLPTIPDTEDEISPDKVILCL
- experimental-details: Androgen Receptor (AR) protein degradation assay in LNCaP cells, western blotting
- Format: cell-based
- conditions: 20 h, 1 μM compound
Please enter True where inhibition at 1 µM is greater than or equal to 90%, and False where it is lower.

molecule="C[C@@H]1CN(CC2CCN(c3ccc(NC(=O)C4CCN(c5ccc(C#N)c(C(F)(F)F)c5)CC4)nc3)CC2)CCN1C1CN(c2ccc3c(c2)C(=O)N(C2CCC(=O)NC2=O)C3=O)C1 (some centres unmarked)" qualitative_label=True
molecule="N#Cc1ccc(N2CCC(C(=O)Nc3ccc(N4CCC(CN5CCN(C6CN(c7ccc8c(c7)C(=O)N(C7CCC(=O)NC7=O)C8=O)C6)CC5)CC4)cn3)CC2)cc1C(F)(F)F (centres unmarked)" qualitative_label=True
molecule="N#Cc1ccc(N2CCC(C(=O)Nc3ccc(N4CCC(CN5CC[C@H](CN6CCN(c7ccc8c(c7)C(=O)N(C7CCC(=O)NC7=O)C8=O)CC6)C5)CC4)cn3)CC2)cc1C(F)(F)F (some centres unmarked)" qualitative_label=True
molecule="N#Cc1ccc(N2CCC(C(=O)Nc3ccc(N4CCC(CN5CCN(CC6CCN(c7ccc8c(n7)CN(C7CCC(=O)NC7=O)C8=O)CC6)CC5)CC4)cn3)CC2)cc1C(F)(F)F (centres unmarked)" qualitative_label=True
molecule="N#Cc1ccc(N2CCC(C(=O)Nc3ccc(N4CC[C@H](CN5CC6(CCN(c7ccc8c(c7)C(=O)N(C7CCC(=O)NC7=O)C8=O)CC6)C5)C4)cn3)CC2)cc1C(F)(F)F (some centres unmarked)" qualitative_label=True
molecule="N#Cc1ccc(N2CCC(C(=O)Nc3ccc(N4CCC5(CC4)CN(C(=O)C4CCN(c6ccc7c(c6)C(=O)N(C6CCC(=O)NC6=O)C7=O)CC4)C5)cn3)CC2)cc1C(F)(F)F (centres unmarked)" qualitative_label=False
molecule="C[C@@H]1CN(CC2CN(c3ccc4c(c3)C(=O)N(C3CCC(=O)NC3=O)C4=O)C2)CCN1CC1CCN(c2ccc(NC(=O)C3CCN(c4ccc(C#N)c(C(F)(F)F)c4)CC3)nc2)CC1 (some centres unmarked)" qualitative_label=True
molecule="N#Cc1ccc(N2CCC(C(=O)Nc3ccc(N4CCC(CCN5CCN(c6cccc7c6C(=O)N(C6CCC(=O)NC6=O)C7=O)CC5)CC4)cn3)CC2)cc1C(F)(F)F (centres unmarked)" qualitative_label=False
molecule="N#Cc1ccc(N2CCC(C(=O)Nc3ccc(N4CCC(CN5CCN(C[C@H]6CCN(c7ccc8c(c7)C(=O)N(C7CCC(=O)NC7=O)C8=O)C6)CC5)CC4)cc3)CC2)cc1C(F)(F)F (some centres unmarked)" qualitative_label=False
molecule="N#Cc1ccc(N2CCC(C(=O)Nc3ccc(OCC4CCN(CC5CCN(c6cc7c(cc6F)C(=O)N(C6CCC(=O)NC6=O)C7=O)CC5)CC4)cn3)CC2)cc1C(F)(F)F (centres unmarked)" qualitative_label=True
molecule="N#Cc1ccc(N2CCC(C(=O)Nc3ccc(N4CCC(CN5CCN(C[C@H]6CCCN(c7ccc8c(c7)C(=O)N(C7CCC(=O)NC7=O)C8=O)C6)CC5)CC4)cn3)CC2)cc1C(F)(F)F (some centres unmarked)" qualitative_label=True
molecule="N#Cc1ccc(N2CCC(C(=O)Nc3ccc(N4CCC(CN5CCN(CC(=O)Nc6cccc(NC7CCC(=O)NC7=O)c6)CC5)CC4)cn3)CC2)cc1C(F)(F)F (centres unmarked)" qualitative_label=False
